experiment: inhibitors of the yeast RAM network, primary screen, dse1pr::URA3 reporter, 5-FOA selection (AID 868);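 note: 0% = DMSO-only wells with no growth and 100% = 10 µM 1-NA-PP1 full growth; inhibition rescues growth on 5-FOA so higher OD means more RAM inhibition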; conditions: S. cerevisiae dse1pr::URA3 reporter, 5-FOA growth OD615, 2 d; at 50 µM; analog-sensitive cbk1-as2 kinase mutant strain
The whole screen tested about 190,000 compounds, of which about 3,500 (1.8%) were called active.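 Rule for the calls: active = inhibition above a set limit, 3 SD over mean compound inhibition (cut at about 8.4% in these data); inactive = the rest.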 The full list was thinned out, with actives kept by preference.
Write down one outcome, taken from active, inactive

Sample answers from the record:
{"molecule": "CCc1nnc(NC(=O)c2cccs2)s1", "group.label": "inactive"}
{"molecule": "N#Cc1c(C(F)(F)F)cc(-c2ccc(Cl)cc2)nc1SCC(=O)O", "group.label": "inactive"}
{"molecule": "Cc1nn(-c2ccccn2)c2c1C(c1ccncc1)C1=C(CC(C)(C)CC1=O)N2 (stereo unspecified)", "group.label": "inactive"}
{"molecule": "O=c1oc2ccccc2cc1-c1csc(Nc2ccc(O)cc2)n1", "group.label": "active"}
{"molecule": "Cc1cc(C)c(C2C3=C(Nc4c2c(C)nn4-c2ccccn2)c2ccccc2C3=O)c(C)c1 (stereo unspecified)", "group.label": "active"}
{"molecule": "Brc1ccc(C2=CC(c3ccco3)n3ncnc3N2)cc1 (stereo unspecified)", "group.label": "inactive"}
{"molecule": "CCc1ccccc1NC(=O)Cc1cn(C)c2ccccc12", "group.label": "inactive"}
{"molecule": "O=C(NNC(=S)NCc1ccccc1)c1ccc(OC(F)F)cc1", "group.label": "inactive"}
{"molecule": "COc1ccc(-n2cnc3cc(C(=O)NC4CCCC4)ccc32)cc1", "group.label": "inactive"}
{"molecule": "CCNc1nc(-c2cc3ccccc3o2)cs1", "group.label": "inactive"}

Enquiry: Assay result, entry `COc1ccc2nc(Nc3nc(-c4cc5ccccc5oc4=O)cs3)sc2c1` — outcome?
Return: inactive

* * *

Listing of entries alongside the reported inhibition.
assay: inhibitors of the yeast RAM network, primary screen, dse1pr::URA3 reporter, 5-FOA selection (AID 868); details: S. cerevisiae dse1pr::URA3 reporter, 5-FOA growth OD615, 2 d; at 50 µM; active compounds read high; analog-sensitive cbk1-as2 kinase mutant strain
Hit rate of the full screen: of about 190,000 compounds, about 3,500 (1.8%) were called active. The sample holds actives, similar compounds and a random draw of the others, so the mix is not that of the screen.
Give your result in % as a bare value.

{"smi": "COc1ccc(-c2ccc(CCC(=O)O)n2NC(=O)c2ccc(C(C)(C)C)cc2)cc1", "unit.abbrev": "%", "data.value": 5.38}
{"smi": "CC(C)(C)c1ccc(/C=C2\\SC(=O)N=C2N)cc1", "unit.abbrev": "%", "data.value": 3.69}
{"smi": "O=c1[nH]c(N2CCN(Cc3ccc4c(c3)OCO4)CC2)nc2c1CCCC2", "unit.abbrev": "%", "data.value": 0.84}

Enquiry: Consider the compound shown here: `COc1ccc2c(c1)c(=O)c(C(=O)c1ccc(Cl)cc1)cn2CC(=O)Nc1ccc(F)cc1` What is its recorded inhibition?
Return: 3.22

Enquiry: What would you report for `Cc1cccc(C(=O)N2CCC(c3nc4ccccc4s3)CC2)c1` ?
Return: 0.14

Enquiry: What would you report for `CN(C)/C=C/C(=O)c1cnc2sccn2c1=O` ?
Return: 3.34

Enquiry: What would you report for `CCOC(=O)CSc1nnc(-c2cccc(Br)c2)o1` ?
Return: -0.68

Enquiry: What would you report for `CC(=O)Nc1ccc(NC(=O)CSCc2cnn(-c3ccccc3)c2-n2cccc2)cc1` ?
Return: 0.44

Enquiry: What would you report for `CCN(CC)S(=O)(=O)c1ccc(N(C)CCc2ccc(OC)c(OC)c2)nc1` ?
Return: 1.33

* * *

assay: inhibitors of the yeast RAM network, primary screen, dse1pr::URA3 reporter, 5-FOA selection (AID 868); conditions: S. cerevisiae dse1pr::URA3 reporter, 5-FOA growth OD615, 2 d; at 50 µM; active compounds read high; analog-sensitive cbk1-as2 kinase mutant strain
Screen size: about 190,000 compounds; about 3,500 (1.8%) were called active. The full list was thinned out, with actives kept by preference.
Listing of entries alongside the reported inhibition.

As a guide, the following entries are already answered.
{"smi": "CC(C)Oc1ccc(Cc2n[nH]c(=S)n2Cc2ccccc2)cc1Cl", "inhibition": "9.13% (active)"}
{"smi": "COc1cc(/C=C2/C(=O)ON=C2C)ccc1OCc1cccc(F)c1", "inhibition": "1.59% (inactive)"}
{"smi": "CC(C)Oc1ccc(CCc2n[nH]c(=S)n2Cc2ccccc2)cc1", "inhibition": "6.59% (inactive)"}

As a next step, examine the compound that follows.
Enquiry: Consider the compound shown here: `CCSc1nnc(-c2cc3c(s2)-c2ccccc2CC3)o1` What is its recorded inhibition?
Return: 2.39% (inactive)

* * *

Listing of entries alongside the reported inhibition.
test: inhibitors of the yeast RAM network, primary screen, dse1pr::URA3 reporter, 5-FOA selection (AID 868);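 note: 0% = DMSO-only wells with no growth and 100% = 10 µM 1-NA-PP1 full growth; inhibition rescues growth on 5-FOA so higher OD means more RAM inhibition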; conditions: S. cerevisiae dse1pr::URA3 reporter, 5-FOA growth OD615, 2 d; at 50 µM; active compounds read high; analog-sensitive cbk1-as2 kinase mutant strain
In all, about 190,000 compounds went through this assay and about 3,500 (1.8%) were called active. Shown is part of a subset that was picked to be rich in actives.
Give your result in % as a bare value.

{"smi": "COc1ccc(-c2[nH]ncc2CN(C)Cc2cc(C)[nH]n2)c(F)c1", "unit.abbrev": "%", "data.value": 0.37}
{"smi": "Cc1c(NC(=S)Nc2ccccc2)c(=O)n(-c2ccccc2)n1C", "unit.abbrev": "%", "data.value": 2.71}
{"smi": "O=C(COc1ccccc1)NCc1ccc2c(c1)OCO2", "unit.abbrev": "%", "data.value": 3.27}
{"smi": "N#Cc1nc(Cc2cccc3ccccc23)oc1NCc1ccc2c(c1)OCO2", "unit.abbrev": "%", "data.value": 11}
{"smi": "Cc1cccc(N=Nc2c(C)[nH]n(-c3ccccc3)c2=O)c1", "unit.abbrev": "%", "data.value": 7.54}

Enquiry: Consider the compound shown here: `NS(=O)(=O)c1ccc(CCNC(=O)c2ccc([N+](=O)[O-])cc2[N+](=O)[O-])cc1` What is its recorded inhibition?
Return: 0

Enquiry: What would you report for `O=C1Oc2ccccc2C(=O)/C1=C/c1ccccc1O` ?
Return: 0.25

* * *

Listing of entries alongside the reported inhibition.
assay: inhibitors of the yeast RAM network, primary screen, dse1pr::URA3 reporter, 5-FOA selection (AID 868);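 note: 0% = DMSO-only wells with no growth and 100% = 10 µM 1-NA-PP1 full growth; inhibition rescues growth on 5-FOA so higher OD means more RAM inhibition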; conditions: S. cerevisiae dse1pr::URA3 reporter, 5-FOA growth OD615, 2 d; at 50 µM; active compounds read high; analog-sensitive cbk1-as2 kinase mutant strain
Hit rate of the full screen: of about 190,000 compounds, about 3,500 (1.8%) were called active. This excerpt belongs to a sample that is enriched for actives.
Give your result in % as a bare value.

As a guide, the following entries are already answered.
{"compound": "O=C(NNC(=O)c1cc2c(s1)CCCC2)c1ccccc1", "unit.abbrev": "%", "data.value": 9.1}
{"compound": "Clc1ccc2nc(CSc3ccccc3)cn2c1", "unit.abbrev": "%", "data.value": 0.13}
{"compound": "Cc1cc(C)n2nc(SCC(N)=O)nc2n1", "unit.abbrev": "%", "data.value": -0.25}
{"compound": "Cc1ccc(CN2CCC(N3CCC(C(=O)NCC4CCCO4)CC3)CC2)o1 (stereo unspecified)", "unit.abbrev": "%", "data.value": 1.95}
{"compound": "Cc1cc(C(=O)N/N=C/c2ccccc2[N+](=O)[O-])c(C)o1", "unit.abbrev": "%", "data.value": 1.55}
{"compound": "CCOC(=O)c1cnc(-n2nc(C)cc2C)nc1-n1nc(C)cc1C", "unit.abbrev": "%", "data.value": 1.58}
{"compound": "Cc1ccc(C(=O)N/C(=C\\c2ccco2)C(=O)N2CCSCC2)cc1C", "unit.abbrev": "%", "data.value": -0.85}
{"compound": "COc1cc(OC)cc(C(=O)Nc2ccc(S(=O)(=O)Nc3cc(C)on3)cc2)c1", "unit.abbrev": "%", "data.value": 3.99}

Enquiry: Consider the compound shown here: `O=C(COC(=O)c1n[nH]c2ccccc12)NCc1ccccc1` What is its recorded inhibition?
Return: 8.45

Enquiry: What would you report for `COc1ccc2c(CC(=O)Nc3nnc(C4CC4)s3)coc2c1` ?
Return: 3.72

Enquiry: What would you report for `COc1cc2ccccc2cc1C(=O)Nc1ccc(S(=O)(=O)Nc2cc(C)on2)cc1` ?
Return: 9.69

Enquiry: What would you report for `COc1ccc(/C=C/C(=O)Nc2ccc3c(c2)OCCO3)cc1OC` ?
Return: 1.12

Enquiry: What would you report for `CC(C)c1cc(NCc2ccccn2)n2c(nc3ccccc32)c1C#N` ?
Return: -0.26

* * *

Listing of entries alongside the reported inhibition.
experiment: inhibitors of the yeast RAM network, primary screen, dse1pr::URA3 reporter, 5-FOA selection (AID 868);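 note: 0% = DMSO-only wells with no growth and 100% = 10 µM 1-NA-PP1 full growth; inhibition rescues growth on 5-FOA so higher OD means more RAM inhibition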; conditions: S. cerevisiae dse1pr::URA3 reporter, 5-FOA growth OD615, 2 d; at 50 µM; active compounds read high; analog-sensitive cbk1-as2 kinase mutant strain
About 3,500 (1.8%) of roughly 190,000 compounds were called active. The entries come from a sample that favours actives as a whole.
Give your result in % as a bare value.

As a guide, the following entries are already answered.
{"molecule": "CCOc1cc(C2C(C(=O)OC(C)C)=C(C)NC3=C2C(=O)CCC3)cc([N+](=O)[O-])c1O (stereo not given)", "inhibition [%]": 3.44}
{"molecule": "O=C(COC(=O)CSc1nnc(-c2ccc(Cl)cc2)o1)Nc1cc(Cl)cc(Cl)c1", "inhibition [%]": 2.39}
{"molecule": "O=C(O)CCC(=O)N(Cc1ccco1)c1nc(-c2ccccc2)cs1", "inhibition [%]": 3.13}

Enquiry: Consider the molecule shown here: `C(=N\N1CCN(c2ccccn2)CC1)/C1=C(N2CCOCC2)C(=C/c2ccccc2)/CC1` What is its recorded inhibition?
Return: -0.25

Enquiry: What would you report for CCOC(=O)C1CCCN(C(=O)/C=C/c2ccc(OC)cc2)C1 (stereo not given) ?
Return: 0.37
